- assay remarks: binders of probe aFST on microarray, primary screen, stem cell growth factor project, biochemical, small-molecule microarray, fluorescence 635/667 (AID 1086);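 also: score merges 667 nm fluorescence with signal-to-noise of each printed compound spot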
- run conditions: higher = more signal
property measured: composite z-score
Could you respond with only the numeric value?

[N-]=[N+]=NCc1ccccc1[C@@H]1OC(c2ccc(OCCCO)cc2)=N[C@]1(CCS(=O)(=O)c1ccccc1)C(=O)NCCN1CCOCC1
1.87
COCCOC(=O)N1C(=O)[C@@]2(c3cc(C#Cc4ccc(OC)cc4)ccc31)[C@H](c1ccc(O)cc1)N1[C@H](c3ccccc3)[C@H](c3ccccc3)OC(=O)[C@H]1[C@@H]2C(=O)NC[C@H](O)c1ccccc1
0.536
CCOC(=O)C[C@H]1[C@H](OC(=O)c2cc3ccccc3oc2=O)[C@@H](NC(=O)C2CCCCC2)c2cc(OCCCO)ccc2N1C(=O)c1ccccc1
0.564
CCOC(=O)C1=CCC(c2ccccc2)N(S(=O)(=O)CC[Si](C)(C)C)C1 (stereo unspecified)
-0.407
CN1C2C=C(CCCO)C(C3C(=O)N(C(N)=O)C(=O)C32)C1c1ccc(CN2CCCC2)cc1 (stereo unspecified)
-0.887

Could you now look at the following molecule, please?
The measured composite z-score associated with O=C1O[C@H](c2ccccc2)[C@H](c2ccccc2)N2[C@H]1[C@@H](C(=O)O)[C@]1(C(=O)Nc3ccc(C#CC4=CCCCC4)cc31)[C@H]2c1ccccc1OCCO reads 0.792

----------
- assay remarks: small-molecule microarray binders of probe aEGFR, primary screen, biochemical, biotinylated probe, 635/667 nm fluorescence (AID 1097);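 also: probe is a biotinylated anti-EGFR antibody binding compounds printed on slides; score combines fluorescence near 667 nm and signal to noise of each spot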
- run conditions: higher = more signal
Label y when composite z-score >= -0.1; otherwise n.

// below: answered molecules
O=C1OCCC=C[C@H]2OC34C=CCN(CCN5CCOCC5)C(=O)[C@H]3N(CCCCCCO)C(=O)[C@@H]4C12 (stereo not given in full)
n
CCCCCCC#C[Si](O[C@H](c1ccccc1)c1cn([C@H](CO)Cc2ccccc2)nn1)(C(C)C)C(C)C
n
COC(=O)[C@@]1(Cc2ccccc2)[C@H]2c3cc(C(=O)N4CCCC4)n(Cc4nc5ccccc5[nH]4)c3C[C@H]2CN1C(=O)c1ccccc1
y
COC(=O)c1c(CC[C@@H](CO)NC(=O)N[C@@H](C)Cn2cc(C3(O)CCCCC3)nn2)oc(C(C)=O)c1C(=O)OC
y
O=C1O[C@@H](c2ccccc2)[C@@H](c2ccccc2)N2[C@@H](c3ccccc3OCCO)[C@]3(C(=O)Nc4ccc(C#CC5=CCCCC5)cc43)[C@@H](C(=O)Nc3nc4ccccc4s3)[C@H]12
y

Input: Is it the case that O=C1OCCC/C=C\[C@H]2OC34C=CCN(c5ccc6ccccc6c5)C(=O)[C@H]3N(CCCCCCO)C(=O)[C@@H]4C12 (stereo not given in full) has composite z-score reaching or exceeding -0.1?
Output: y

Input: Is it the case that COCCCNC(=O)[C@@]1(Cc2ccccc2)N=C(c2ccc(OCCCO)cc2)O[C@H]1c1ccccc1 has composite z-score reaching or exceeding -0.1?
Output: y

Input: Is it the case that COC(=O)C=C(CC(O)c1cccc(Cl)c1)OC (stereo not given) has composite z-score reaching or exceeding -0.1?
Output: y

Input: Is it the case that CO[C@H]1O[C@H](CO)[C@@H](OC(=O)Nc2ccc(Br)cc2)[C@H](OC(=O)c2cc3ccccc3[nH]2)[C@H]1OC(=O)c1cc2ccccc2[nH]1 has composite z-score reaching or exceeding -0.1?
Output: y

Input: Is it the case that O=C1NCC(=O)N2[C@@H]1C[C@@H](C(=O)O)[C@H]2c1cccc(OCCO)c1 has composite z-score reaching or exceeding -0.1?
Output: y

Input: Is it the case that COc1cc2c(cc1OC)CN(C(=O)[C@H]1[C@@H]3C(=O)O[C@@H](c4ccccc4)[C@@H](c4ccccc4)N3[C@@H](c3ccc(O)cc3)[C@]13C(=O)Nc1ccc(C#CCNC(N)=O)cc13)CC2 has composite z-score reaching or exceeding -0.1?
Output: y

Input: Is it the case that C#CCN(CC=C(C)C)[C@H](CO)c1ccccc1 has composite z-score reaching or exceeding -0.1?
Output: y

Input: Is it the case that O=C1NC(=O)C2C1C=CC(C(O)c1cccc3ccccc13)N2Nc1ccccn1 (stereo not given) has composite z-score reaching or exceeding -0.1?
Output: y

Input: Is it the case that COc1ccc([Si](C)(C)[C@H]2[C@H](CCO)O[C@@]3(C(=O)N(C)c4c(Br)cc(C)cc43)[C@@H]2C)cc1 has composite z-score reaching or exceeding -0.1?
Output: y

----------
Below, each entry is listed with its recorded z-score.
- assay remarks: E. coli DRC41 culture turbidity changes, primary screen, E. coli filamentation inducer project, strain DRC41, OD650, 48 h (AID 1152);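 also: E. coli MC1000 strain DRC41 lacking acrAB efflux pump and sulA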
- run conditions: E. coli DRC41 (acrAB sulA), higher = more signal, called active from +8 up or from −8 down
Could you respond with only the numeric value?

C=CCOC(=O)[C@@H]1[C@H]2C(=O)O[C@H](c3ccccc3)[C@H](c3ccccc3)N2[C@H](c2ccc(OCCOC(=O)[C@@H]3C[C@@H]4C(=O)N[C@@H](CCCC[N+](C)(C)C)C(=O)N4[C@@H]3c3cccc(OCCO)c3)cc2)[C@@]12C(=O)Nc1ccc(I)cc12
-0.537

Could you now look at the following molecule, please?
The measured z-score associated with C=CCOC(=O)[C@H]1[C@@H]2C(=O)O[C@@H](c3ccccc3)[C@@H](c3ccccc3)N2[C@@H](c2ccc(OCCOC(=O)[C@@H]3C[C@@H]4C(=O)N[C@@H](CCCC[N+](C)(C)C)C(=O)N4[C@@H]3c3ccc(O)cc3)cc2)[C@]12C(=O)Nc1ccccc12 reads 0.443

----------
Below, each entry is listed with its recorded z-score.
- assay remarks: S. cerevisiae growth modulation with rapamycin, primary screen, strain BY4716, OD600, 96 h (AID 1091); also: test concentration not given here
- run conditions: higher = more signal, called active from +8 up or from −8 down
Could you respond with only the numeric value?

Consider the reported z-score for these molecules:
C=CCNC(=O)[C@@H]1[C@H]2C(=O)O[C@H](c3ccccc3)[C@H](c3ccccc3)N2[C@H](c2ccc(OCCO)cc2)[C@@]12C(=O)Nc1ccc(C#CCCO)cc12
3.39
CC(C)(C)OC(=O)CC[C@]12N=C(c3ccc(OCCCO)cc3)O[C@H]1c1ccccc1N(CCS(=O)(=O)c1ccccc1)C2=O
0.246

The measured z-score associated with CCOC(=O)[C@H]1C/C=C/C[C@H](C(=O)OCC)C(=O)O[C@H]2[C@@H](OC)O[C@H](CO)[C@@H](OC(=O)Nc3cccc(F)c3)[C@@H]2OC1=O reads 22.2

----------
- assay remarks: Plasmodium falciparum growth inhibition, primary screen, strain 3D7, DAPI fluorescence, 100 nL (AID 1184);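 also: parasites grown inside human red blood cells in medium with human serum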
- run conditions: P. falciparum 3D7 growth, 3 d, higher = more signal
Below, each entry is listed with its recorded z-score.
Could you respond with only the numeric value?

C=CC[C@@]1(C(=O)N(C)C)N=C(c2ccc(OCCCO)cc2)O[C@@H]1c1ccccc1N=[N+]=[N-]
-2.09
O=C1C2C=CC(C(O)C3CCCCC3)N(Nc3ccc([N+](=O)[O-])cc3)C2C(=O)N1c1ccccc1 (centres undefined)
-1.5

The measured z-score associated with CC1(C)[C@@H]2CC(C(O)C3C=CC4C(=O)N(c5ccccc5)C(=O)C4N3Nc3ccccc3)=C[C@H]1C2 (some centres undefined) reads -0.0796

The measured z-score associated with Cc1ccc(S[C@]2(C(=O)NCCN3CCOCC3)CC(=O)N(Cc3ccccc3)[C@@H]2c2ccc(CO)cc2I)cc1 reads -1.44

The measured z-score associated with COCCOC(=O)N1C(=O)[C@@]2(c3cc(C#Cc4ccc(OC)cc4)ccc31)[C@H](C(=O)N1CCCCCCC1)[C@H]1C(=O)O[C@H](c3ccccc3)[C@H](c3ccccc3)N1[C@@H]2c1ccc(OCCO)cc1 reads -2

----------
- test system: Fibroblast growth factor 10 (Homo sapiens) (UniProt O15520)
- Sequence (O15520 whole entry, looked up): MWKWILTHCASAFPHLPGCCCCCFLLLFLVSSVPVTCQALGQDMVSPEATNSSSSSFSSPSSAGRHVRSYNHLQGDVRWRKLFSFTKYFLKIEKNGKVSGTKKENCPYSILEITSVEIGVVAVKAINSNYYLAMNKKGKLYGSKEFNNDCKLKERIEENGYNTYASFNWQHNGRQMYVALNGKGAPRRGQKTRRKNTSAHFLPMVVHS
- assay remarks: FGF10 binders on small-molecule microarrays, primary screen, biochemical, small-molecule microarray, 635 nm fluorescence (AID 1102)
- run conditions: FGF10 binding, fluorescence 635 nm, higher = more signal
Label Yes when composite z-score >= 0.02; otherwise No.

// below: answered compounds
CN1C(=O)C2C=CC(C(O)Cc3ccccc3)N(Nc3ccccc3)C2C1=O (stereo not given)
Yes
O=C1NCC(=O)N2[C@@H]1C[C@@H](C(=O)O)[C@H]2c1cccc(OCCO)c1
Yes
C=C(COC)/C(=C/C[C@@H](OC(C)=O)c1ccc(OCCO)cc1)c1cc(C(=O)OC)ccc1OC
Yes
COc1ccc(C(O)C2C=CC3C(=O)N(C)C(=O)C3N2N2CCCCC2)c2ccccc12 (stereo not given)
Yes
C=C(C)C1C(=C)CN([C@H](CO)c2ccccc2)C1=O (stereo not given in full)
No

Input: Is it the case that CN(C)CCCNC(=O)[C@@]1(C)c2ccccc2C(=O)N(Cc2cc(F)cc(C(F)(F)F)c2)[C@H]1c1ccc(CO)cc1 has composite z-score reaching or exceeding 0.02?
Output: No

Input: Is it the case that COCCOC(=O)N1C(=O)[C@@]2(c3cc(C#CC4=CCCCC4)ccc31)[C@H](C(N)=O)[C@H]1C(=O)O[C@H](c3ccccc3)[C@H](c3ccccc3)N1[C@@H]2c1ccc(OCCO)cc1 has composite z-score reaching or exceeding 0.02?
Output: Yes

Input: Is it the case that COCCCNC(=O)[C@@]1(Cc2ccccc2)N=C(c2ccc(OCCCO)cc2)O[C@H]1c1ccccc1 has composite z-score reaching or exceeding 0.02?
Output: Yes

Input: Is it the case that O=C1OCCC=C[C@H]2OC34C=CCN(CCN5CCOCC5)C(=O)[C@H]3N(CCCCCCO)C(=O)[C@@H]4C12 (stereo not given in full) has composite z-score reaching or exceeding 0.02?
Output: No

Input: Is it the case that COC(=O)[C@@]1(Cc2ccc(OC)cc2)[C@H]2c3cc(C(=O)N4CCCC4)n(Cc4ccccc4)c3C[C@H]2CN1C(=O)c1ccccc1 has composite z-score reaching or exceeding 0.02?
Output: Yes

Input: Is it the case that C#CCNC(=O)[C@H](Cc1ccccc1)NC(=O)CCC(=O)O has composite z-score reaching or exceeding 0.02?
Output: No

Input: Is it the case that COc1ccc(C(=O)O[C@H]2CC[C@]3(C)C4=C(CCC3C2(C)C)[C@]2(C)CC[C@H]([C@H](C)CCCC(C)C)[C@@]2(C)CC4)cc1 (stereo not given in full) has composite z-score reaching or exceeding 0.02?
Output: Yes

Input: Is it the case that C=CCOC(=O)[C@H]1[C@@H]2C(=O)O[C@@H](c3ccccc3)[C@@H](c3ccccc3)N2[C@@H](c2ccc(OCCOC(=O)[C@H]3C[C@H]4C(=O)N[C@@H](CC(C)C)C(=O)N4[C@H]3c3ccc(O)cc3)cc2)[C@]12C(=O)Nc1ccc(I)cc12 has composite z-score reaching or exceeding 0.02?
Output: Yes

Input: Is it the case that O=C1C[C@]2(c3ccc([N+](=O)[O-])cc3)C(=O)N(CCN3CCOCC3)c3cc(CO)ccc3[C@H]2N1C1CCCCC1 has composite z-score reaching or exceeding 0.02?
Output: No

Input: Is it the case that O=C(O)[C@@]1(CCS(=O)(=O)c2ccccc2)COC(c2ccc(OCCCO)cc2)=N1 has composite z-score reaching or exceeding 0.02?
Output: No
